# tested.on: T1, recombinant BACE1 (BACE1 extracellular domain, R&D Systems Cat#931-AS) (UniProt P56817 22-457)
# T1 construct: extracellular domain; also called BACE1 extracellular domain protein
# assay.overview: SPR Biacore

| binder | koff [s⁻¹] |
| --- | --- |
| 2H8.27 (antibody, human IgG1, V domains shown, human IgG1/kappa; also called 2H8_HCvar3 + 2H8_LCvar5) VH: EVQLQQSGAELVRPGTSVKLSCKASGYTFTSYWIHWVKQRPGQGLEWIGMIDPSDSYTKYNQKFKDKATLTVDTSSSTTYMHLSSLTSEDSAVYYCARSGVAFPYWGQRTLVTVSA VL: DIVMTQSQKFMSTSVGDRVSVTCKASQNVGTNVAWYQQKSGQSPKALIYSASHRYSGVPDRFTGSGSGTDFTLTISNVQSEDLAEYFCQQYNSYPYTFGGGTKLEIK | 0.00024 |
| 2H8.02 (antibody, human IgG1, V domains shown, human IgG1/kappa; also called 2H8_HCvar2 + 2H8_LC) VH: EVQLQQPGTELVRPGTSVKLSCKASGYTFTNYWMHWIKQRPGQGLEWIGMIDPSDTYTKFNQNFKGKATLTVDTSSSTAYMQLNSLTSEDSAVYYCARSGVAFPYWGQGTTVTVSS VL: DIVMTQSQKFMSKSVGDTVSVTCKASQDVGRNVAWYQQKSGQSPKSLIYSASHRYSGVPDRFTGSGSGTDFTLTISNVQSEDLADYFCQQYNSYPYTFGGGTRLEIK | 0.000265 |
| 2H8.24 (antibody, human IgG1, V domains shown, human IgG1/kappa; also called 2H8_HCvar6 + 2H8_LCvar4) VH: EVQLQQSGAELVRPGTSVKLSCKASGYTFNNYWMHWVKQRPGQGLEWIGMIDPSDDDIKNNQKFKGKATLTVDTSSSTAYMQLISLTSEDSAVYYCARSGVALPYWGQGTLVTVSA VL: DIVMTQSQKFMSTSVGDRVSITCKASQNVGTNVAWYQQKPGQSPKALIYSASYRYSGVPDRFTGSGSGTDFTLTISNVQSEDLAEYFCQQYNSYPYTFGGGTKLEIK | 0.00243 |

All figures here come from patent US20210070881A1.
